PROTOCOL_SUMMARY: Cytotoxicity against human A549 cells after 72 hrs by MTT assay
Format: cell-based
MEASUREMENT_LABEL: GI50 at 72 h (µM)

1) C#CCn1c2c(c3ccccc3c1=O)C(=O)c1ccccc1C2=O ... 8.6
